Reported OD 450 nm values for the following binders.
TGT: T1, Antigen CD66c (CEACAM6; Sino Biological, Inc.) (UniProt P40199 35-320)
T1 construct: Bought antigen coated on the ELISA plate; construct not described; also called CD66c antigen; CECACAM6
T1 sequence (looked up): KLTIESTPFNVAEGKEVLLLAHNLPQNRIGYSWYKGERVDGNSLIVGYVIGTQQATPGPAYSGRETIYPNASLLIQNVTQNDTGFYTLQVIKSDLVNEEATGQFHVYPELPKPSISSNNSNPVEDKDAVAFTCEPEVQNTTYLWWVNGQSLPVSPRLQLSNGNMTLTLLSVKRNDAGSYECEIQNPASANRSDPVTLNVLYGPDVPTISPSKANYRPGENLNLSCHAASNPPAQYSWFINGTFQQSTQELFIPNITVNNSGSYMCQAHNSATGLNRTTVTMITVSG
MEASUREMENT DESCRIPTION: ELISA, coated CEACAM6 100 ng/well, antibody 0.51 ng/ml
Value expressed in OD; do not type the unit.

recombinant humanized anti-CD66c antibody Protein ID 3007 (Vk7 + VH6) (antibody, human IgG1, V domains shown, also called hu 3007; #43) VH: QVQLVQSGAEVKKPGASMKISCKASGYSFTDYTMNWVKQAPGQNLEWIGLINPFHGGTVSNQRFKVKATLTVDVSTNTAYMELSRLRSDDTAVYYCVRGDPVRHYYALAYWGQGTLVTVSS VL: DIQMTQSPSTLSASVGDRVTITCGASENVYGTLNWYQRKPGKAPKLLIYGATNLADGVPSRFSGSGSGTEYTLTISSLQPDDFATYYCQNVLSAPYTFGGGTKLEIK; 0.64

Query (binder): anti-CD66c chimeric antibody 8F5 (antibody, human IgG1, V domains shown, also called chimeric 8F5 antibody; chi 8F5) VH: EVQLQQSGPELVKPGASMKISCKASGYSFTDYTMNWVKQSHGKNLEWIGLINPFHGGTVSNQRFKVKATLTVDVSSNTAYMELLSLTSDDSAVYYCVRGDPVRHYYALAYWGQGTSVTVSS VL: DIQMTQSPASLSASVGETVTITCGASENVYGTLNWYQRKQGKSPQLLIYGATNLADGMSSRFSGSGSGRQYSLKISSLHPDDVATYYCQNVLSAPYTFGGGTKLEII ; field requested: OD 450 nm
0.41

// next record recombinant humanized anti-CD66c antibody Protein ID 2938 (Vk5 + VH7) (antibody, human IgG1, V domains shown, also called hu 2938) VH: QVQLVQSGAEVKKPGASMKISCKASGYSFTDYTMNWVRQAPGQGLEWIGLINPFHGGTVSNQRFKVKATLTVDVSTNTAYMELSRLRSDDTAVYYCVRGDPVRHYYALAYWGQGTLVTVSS VL: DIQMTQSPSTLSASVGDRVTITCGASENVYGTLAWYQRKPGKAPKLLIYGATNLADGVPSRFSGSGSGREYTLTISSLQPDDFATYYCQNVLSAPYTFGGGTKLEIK
0.36

Again, but for recombinant humanized anti-CD66c antibody Protein ID 3043 (Vk8 + VH6) (antibody, human IgG1, V domains shown, also called hu 3043; #71) VH: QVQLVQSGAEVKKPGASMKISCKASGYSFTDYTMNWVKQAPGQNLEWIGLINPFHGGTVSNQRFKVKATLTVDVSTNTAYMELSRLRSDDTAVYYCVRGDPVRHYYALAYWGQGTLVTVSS VL: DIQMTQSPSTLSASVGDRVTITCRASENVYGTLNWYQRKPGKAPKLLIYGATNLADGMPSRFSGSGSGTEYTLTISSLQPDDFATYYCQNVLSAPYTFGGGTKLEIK
0.49

These data points were gathered from patent US20190263905A1.
